# ASSAYED TARGET: IDO1 (Homo sapiens)
# Construct: No. 20160706
# Sequence (P14902 whole entry): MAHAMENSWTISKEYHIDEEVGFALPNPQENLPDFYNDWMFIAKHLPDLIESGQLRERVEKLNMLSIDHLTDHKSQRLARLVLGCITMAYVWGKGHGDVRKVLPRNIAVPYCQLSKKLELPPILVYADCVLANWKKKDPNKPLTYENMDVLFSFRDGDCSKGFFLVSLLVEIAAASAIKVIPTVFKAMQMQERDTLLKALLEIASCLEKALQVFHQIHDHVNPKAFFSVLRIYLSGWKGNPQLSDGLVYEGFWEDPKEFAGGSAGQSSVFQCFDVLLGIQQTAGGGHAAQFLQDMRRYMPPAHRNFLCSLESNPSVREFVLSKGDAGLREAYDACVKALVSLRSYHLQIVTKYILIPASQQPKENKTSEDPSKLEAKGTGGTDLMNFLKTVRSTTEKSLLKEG
# EXPERIMENT NOTES: IDO1 enzymatic assay
# Assay type: biochemical
# APPLIED CONDITIONS: 10 μM; Tables 2 and 3; read-out: IDO1 % Inhibition at 10 μM (converted)
READOUT TYPE: inhibition at 10 µM (%)
All answers are understood in %, so give the number only.

Use the examples below as a reference point.
{"COMPOUND": "Cc1ccc2c(c1CCC(N)=O)C(=O)C(=O)C(C(C)C)=C2", "ASSAYED TARGET": "IDO1 (Homo sapiens)", "inhibition at 10 µM / %": 78}
{"COMPOUND": "Cc1ccc2c(c1CCC(=O)NCCCCCC(=O)Nc1ccccc1N)C(=O)C(=O)C(C(C)C)=C2 [Compound 33d]", "ASSAYED TARGET": "IDO1 (Homo sapiens)", "inhibition at 10 µM / %": 82}
{"COMPOUND": "Cc1ccc2c(c1CCC(=O)Nc1cc(F)ccc1N)C(=O)C(=O)C(C(C)C)=C2 [Compound 27b]", "ASSAYED TARGET": "IDO1 (Homo sapiens)", "inhibition at 10 µM / %": 84}
{"COMPOUND": "Cc1ccc2c(c1CCC(O)C(C)(C)O)C(=O)C(=O)C(C(C)C)=C2 (stereo not shown)", "ASSAYED TARGET": "IDO1 (Homo sapiens)", "inhibition at 10 µM / %": 90}
{"COMPOUND": "Cc1ccc2c(c1CCC(=O)Nc1cccc(F)c1)C(=O)C(=O)C(C(C)C)=C2 [Compound 21a]", "ASSAYED TARGET": "IDO1 (Homo sapiens)", "inhibition at 10 µM / %": 80}
{"COMPOUND": "Cc1ccc2c(c1CCC(=O)Nc1ccccc1N)C(=O)C(=O)C(C(C)C)=C2 [Compound 27a]", "ASSAYED TARGET": "IDO1 (Homo sapiens)", "inhibition at 10 µM / %": 88}
{"COMPOUND": "Cc1ccc2c(c1CCC(=O)Nc1ccc(F)cc1)C(=O)C(=O)C(C(C)C)=C2 [Compound 21b]", "ASSAYED TARGET": "IDO1 (Homo sapiens)", "inhibition at 10 µM / %": 64}
{"COMPOUND": "CC(C)=CCCc1c(C)ccc2c1C(=O)C(=O)C(C(C)C)=C2", "ASSAYED TARGET": "IDO1 (Homo sapiens)", "inhibition at 10 µM / %": 85}

IN: Sample Cc1ccc2c(c1CCC(=O)NCCC(=O)Nc1ccccc1N)C(=O)C(=O)C(C(C)C)=C2 [Compound 33a] — what was its inhibition at 10 µM?
OUT: 89

###

In this section, each of the molecules is paired with its reported pIC50.
# ASSAYED TARGET: HDAC1 (Homo sapiens, UniProt Q13547)
# Sequence (Q13547 whole entry): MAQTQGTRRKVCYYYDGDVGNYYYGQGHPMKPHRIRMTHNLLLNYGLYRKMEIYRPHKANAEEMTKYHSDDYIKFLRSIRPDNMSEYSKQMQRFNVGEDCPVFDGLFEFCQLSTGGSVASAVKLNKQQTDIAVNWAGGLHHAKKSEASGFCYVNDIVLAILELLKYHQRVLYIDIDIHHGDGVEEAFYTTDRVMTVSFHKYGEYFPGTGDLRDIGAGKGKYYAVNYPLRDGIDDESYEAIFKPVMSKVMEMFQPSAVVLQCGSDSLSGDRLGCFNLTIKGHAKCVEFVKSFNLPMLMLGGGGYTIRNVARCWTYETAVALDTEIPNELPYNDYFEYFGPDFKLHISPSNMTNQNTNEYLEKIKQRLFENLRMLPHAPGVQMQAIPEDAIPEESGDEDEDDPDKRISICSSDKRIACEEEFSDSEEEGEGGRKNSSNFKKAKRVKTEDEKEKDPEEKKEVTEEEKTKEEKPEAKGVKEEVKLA
When answering, recall that pIC50 equals minus log10 of the concentration in mol/L, and write that number alone.

Use the examples below as a reference point.
{"MOLECULE": "Cc1ccc2c(c1CCC(=O)NCCCC(=O)Nc1ccccc1N)C(=O)C(=O)C(C(C)C)=C2 [Compound 33b]", "ASSAYED TARGET": "HDAC1 (Homo sapiens, UniProt Q13547)", "REPORTED": 4.46}
{"MOLECULE": "Cc1ccc2c(c1CCC(=O)NCCCCCC(=O)Nc1ccccc1N)C(=O)C(=O)C(C(C)C)=C2 [Compound 33d]", "ASSAYED TARGET": "HDAC1 (Homo sapiens, UniProt Q13547)", "REPORTED": 6.34}

The record that follows has no pIC50 shown yet.
IN: Sample Cc1ccc2c(c1CCC(=O)NCCCCC(=O)Nc1ccccc1N)C(=O)C(=O)C(C(C)C)=C2 [Compound 33c] — what was its pIC50?
OUT: 4.40
